- Assay name: 39-week monkey toxicity study: toxicokinetics in plasma
- Assay type: in vivo, cynomolgus monkeys (Macaca fascicularis)
- Experimental parameters: female, cynomolgus monkey, plasma; Day 12, 7.5 mg/kg/day oral; read-out: Cmax, female (mean)

Compound | Value units | Cmax
Cc1cn2nc(-c3cc(=O)n4cc(N5CCNC6(CC6)C5)ccc4n3)cc(C)c2n1 [RO7034067] | ng/mL | 1070

* * *

- Assay name: 39-week monkey toxicity study: retina effects (ERG, sdOCT, histopathology), NOAEL
- Experimental parameters: both, cynomolgus monkey, in vivo, po
Measure: NOAEL at 39 weeks (mg/kg/day)

Smiles code | Measure | Measured value
Cc1cn2nc(-c3cc(=O)n4cc(N5CCNC6(CC6)C5)ccc4n3)cc(C)c2n1 | NOAEL at 39 weeks | 1.5
